assay: Selectivity index, ratio of CC50 for human MT4 cells to EC50 for wild type HIV-1 3B infected in human MT4 cells; assay type: toxicity, cell-based; details: read-out: Ratio CC50/EC50
The entries below are paired with their reported selectivity ratio.
Form rule: numeric answer, no unit written next to it.

Here's what some known entries look like.
structure notation: Cc1cc(Cl)cc(C)c1Oc1cc(Nc2ccc(C#N)cc2)ncc1[N+](=O)[O-]
selectivity ratio: 70

structure notation: Cc1cc(C)c(Oc2cc(Nc3ccc(C#N)cc3)ncc2[N+](=O)[O-])c(C)c1
selectivity ratio: 1250

structure notation: N#Cc1ccc(Nc2cc(Nc3c(F)cc(Br)cc3Br)c([N+](=O)[O-])cn2)cc1
selectivity ratio: 49

Query: # get_value(readout='selectivity ratio', item= "N#Cc1ccc(Nc2cc(Oc3c(Cl)cccc3Cl)c([N+](=O)[O-])cn2)cc1" )
Reply: 44

Query: Recorded selectivity ratio for "N#Cc1ccc(Nc2cc(Oc3c(Br)cc(Br)cc3Br)c([N+](=O)[O-])cn2)cc1" , please?
Reply: 65

Query: Sample "COc1cccc(OC)c1Oc1cc(Nc2ccc(C#N)cc2)ncc1[N+](=O)[O-]" — what was its selectivity ratio?
Reply: 74

Query: # get_value(readout='selectivity ratio', item= "Cc1cc(Br)c(Nc2cc(Nc3ccc(C#N)cc3)ncc2[N+](=O)[O-])c(Br)c1" )
Reply: 43

Query: Given the entry "N#Cc1ccc(Nc2cc(Oc3c(Cl)cc([N+](=O)[O-])cc3Cl)c([N+](=O)[O-])cn2)cc1" , report its measured selectivity ratio.
Reply: 2

Query: For "Cc1cc(Br)c(Oc2cc(Nc3ccc(C#N)cc3)ncc2[N+](=O)[O-])c(Br)c1" , what is its reported selectivity ratio?
Reply: 691

Query: What does the data say about its selectivity ratio? Entry: "Cc1cc(C#N)cc(C)c1Oc1cc(Nc2ccc([N+](=O)[O-])cc2)ncc1[N+](=O)[O-]"
Reply: 200

Query: Fill in: selectivity ratio of "N#Cc1ccc(Nc2cc(Oc3c(F)cc(F)cc3F)c([N+](=O)[O-])cn2)cc1" is ___
Reply: 5

Query: Reported selectivity ratio for "Cc1cc(C)c(Nc2cc(Nc3ccc(C#N)cc3)ncc2[N+](=O)[O-])c(C)c1" : what is it?
Reply: 9

Query: Request the reported selectivity ratio associated with "Cc1cc(Br)cc(C)c1Oc1cc(Nc2ccc(C#N)cc2)ncc1[N+](=O)[O-]"
Reply: 45

Query: I am curious: what selectivity ratio value has been reported for "Cc1cccc(C)c1Oc1cc(Nc2ccc(C#N)cc2)ncc1[N+](=O)[O-]" ?
Reply: 214

Query: Can you share its selectivity ratio? I mean this compound: "N#Cc1ccc(Nc2cc(Oc3c(Cl)cc(Cl)cc3Cl)c([N+](=O)[O-])cn2)cc1"
Reply: 97

Query: For the compound shown here, "Cc1cc(C#N)cc(C)c1Oc1cc(Nc2ccc(C#N)cc2)ncc1[N+](=O)[O-]" , give the reported selectivity ratio.
Reply: 339
